src = patent US20110098296A1

- System: Colo205 tumor cells
- assay.remarks: Method C: Cell Growth Inhibition Assay (CellTiter-Glo), Colo205
- Format: cell-based
- measurement.setup: Homo sapiens, COLO 205, 72 h, 3 days, 4-parameter fit
Where a name gives a salt, the structure may show the parent alone.
Measured IC50 by item

Below are worked cases with known answers.
CN(C)c1nc(-c2cccc(NC(=O)c3c(F)cccc3F)c2)c(-c2ccnc(Nc3cccc(CN4CCCC4)c3)n2)s1 [Example 39] : 100 to 1000 nM
COc1ccc(Nc2nccc(-c3sc(N)nc3-c3cccc(NC(=O)c4c(F)cccc4F)c3)n2)cc1OCCN(C)C [Example 2] : < 100 nM
COc1ccc(Nc2nccc(-c3sc(NC4CC4)nc3-c3cccc(NC(=O)c4c(F)cccc4F)c3)n2)cc1OCCN(C)C [Example 32] : 100 to 1000 nM
CN(C)CCOc1cccc(Nc2nccc(-c3sc(N)nc3-c3cccc(C(=O)Nc4c(F)cccc4F)c3)n2)c1 [Example 76] : 100 to 1000 nM
CN1CCc2ccc(Nc3nccc(-c4sc(C5CCNCC5)nc4-c4cccc(NC(=O)c5c(F)cccc5F)c4)n3)cc2C1 [Example 124] : 100 to 1000 nM
Cc1cc(Nc2nccc(-c3sc(N(C)C)nc3-c3cccc(NC(=O)c4c(F)cccc4F)c3)n2)ccc1CC1CCNCC1 [Example 42] : > 1000 nM

Which IC50 value is on record for Cc1nc(-c2cccc(NC(=O)c3cc(F)ccc3F)c2)c(-c2ccnc(Nc3ccc(OCCN(C)C)c(F)c3)n2)s1 [Example 128] ?
> 1000 nM

Which IC50 value is on record for O=C(Nc1cccc(-c2ncsc2-c2ccnc(Nc3cccc(CN4CCCC4)c3)n2)c1)c1c(F)cccc1F [Example 94] ?
100 to 1000 nM

Which IC50 value is on record for CN(C)CCOc1cccc(Nc2nccc(-c3sc(NCCCN4CCOCC4)nc3-c3cccc(NC(=O)c4c(F)cccc4F)c3)n2)c1 [Example 29] ?
100 to 1000 nM

Which IC50 value is on record for CN(C)CCOc1ccc(Nc2nccc(-c3sc(N)nc3-c3ccc(F)c(NC(=O)c4c(F)cccc4F)c3)n2)cc1Cl [Example 67] ?
< 100 nM

Which IC50 value is on record for Cc1nc(-c2cccc(NC(=O)c3c(F)cccc3F)c2)c(-c2ccnc(Nc3ccc(OC4CCN(C(C)C)CC4)c(F)c3)n2)s1 [Example 111] ?
100 to 1000 nM

Which IC50 value is on record for CNc1nc(-c2cccc(NC(=O)c3c(F)cccc3F)c2)c(-c2ccnc(Nc3ccc(OCCN(C)C)c(Cl)c3)n2)s1 [Example 24] ?
100 to 1000 nM

Which IC50 value is on record for CN(C)Cc1cccc(Nc2nccc(-c3scnc3-c3cccc(NC(=O)c4c(F)cccc4F)c3)n2)c1 [Example 90] ?
100 to 1000 nM

Which IC50 value is on record for CN(C)CCOc1ccc(Nc2nccc(-c3sc(N)nc3-c3cccc(C(=O)Nc4c(F)cccc4F)c3)n2)cc1Cl [Example 75] ?
100 to 1000 nM

Which IC50 value is on record for CNc1nc(-c2cccc(NC(=O)c3c(F)cccc3F)c2)c(-c2ccnc(Nc3cccc(CN4CCCC4)c3)n2)s1 [Example 23] ?
100 to 1000 nM

Which IC50 value is on record for Cc1nc(-c2cccc(NC(=O)Nc3ccc(Cl)c(C(F)(F)F)c3)c2)c(-c2ccnc(Nc3ccc4c(c3)CN(C)CC4)n2)s1 [Example 129] ?
100 to 1000 nM

Which IC50 value is on record for CN(C)c1nc(-c2cccc(NC(=O)c3c(F)cccc3F)c2)c(-c2ccnc(Nc3ccc(OCCN4CCCC4)c(Cl)c3)n2)s1 [Example 40] ?
100 to 1000 nM

Which IC50 value is on record for O=C(Nc1cccc(-c2nc(CO)sc2-c2ccnc(Nc3ccc(OCCN4CCCC4)c(F)c3)n2)c1)c1c(F)cccc1F [Example 126] ?
100 to 1000 nM

Which IC50 value is on record for COc1ccc(Nc2nccc(-c3sc(N)nc3-c3cccc(NC(=O)c4c(F)cccc4F)c3)n2)cc1N1CCN(C)CC1 [Example 11, trifluoroacetate] ?
100 to 1000 nM

Which IC50 value is on record for CCN(CC)CCOc1cccc(Nc2nccc(-c3sc(N)nc3-c3cccc(NC(=O)c4c(F)cccc4F)c3)n2)c1 [Example 17] ?
100 to 1000 nM

Which IC50 value is on record for CCNc1nc(-c2cccc(NC(=O)c3c(F)cccc3F)c2)c(-c2ccnc(Nc3ccc(OCCN(C)C)c(Cl)c3)n2)s1 [Example 25] ?
100 to 1000 nM

Which IC50 value is on record for CN(C)CCOc1cccc(Nc2nccc(-c3scnc3-c3cccc(NC(=O)Cc4cccs4)c3)n2)c1 [Example 84] ?
> 1000 nM

Which IC50 value is on record for Cc1nc(-c2cccc(NC(=O)c3c(F)cccc3F)c2)c(-c2ccnc(Nc3ccc(OCCN(C)C)c(F)c3)n2)s1 [Example 105] ?
100 to 1000 nM

Which IC50 value is on record for Cc1nc(-c2cccc(NC(=O)Nc3ccc(Cl)c(C(F)(F)F)c3)c2)c(-c2ccnc(Nc3ccc(OCCN(C)C)c(Cl)c3)n2)s1 [Example 133] ?
100 to 1000 nM

Which IC50 value is on record for CC(C)c1nc(-c2cccc(NC(=O)c3c(F)cccc3F)c2)c(-c2ccnc(Nc3cccc(OCCN(C)C)c3)n2)s1 [Example 122] ?
> 1000 nM

Which IC50 value is on record for CN1CCc2ccc(Nc3nccc(-c4sc(N5CCCC5)nc4-c4cccc(NC(=O)c5c(F)cccc5F)c4)n3)cc2C1 [Example 44] ?
100 to 1000 nM

Which IC50 value is on record for COc1ccc(Nc2nccc(-c3scnc3-c3cccc(NC(=O)c4c(F)cccc4F)c3)n2)cc1N1CCN(C)CC1 [Example 93] ?
100 to 1000 nM
